# system: urokinase-type plasminogen activator (uPA) (Homo sapiens)
# assay_summary: Peptide probe cleavage assay (internally quenched MCA/DNP probes) with uPA
# Format: biochemical
# settings: 20 μM internally quenched peptide probe, 20 nM protease, 37° C.; — = below limit of quantification
No end group written: not given here.
Listing: Probe Cleavage (pM/s) uPA of selected substances
observation_type: Probe Cleavage (pM/s) uPA

>  <substance>
CM PWGLSGRA: internally quenched MCA/DNP probe SEQ ID NO: 699 with one residue replaced by Ala, CM PWGLSGRA (SEQ ID NO: 693) (not fully specified (N-terminus, C-terminus); also: MCA/DNP internal quench labels, places not given here)

>  <measurement_units>
pM/s

>  <readout_value>
380

$$$$
>  <substance>
CM RSPWGL: internally quenched MCA/DNP peptide probe of design SEQ ID NO: 698, CM RSPWGL (SEQ ID NO: 90) (also: MCA/DNP internal quench labels, places not given here)

>  <measurement_units>
pM/s

>  <readout_value>
3210

$$$$

###

# system: MMP14 (Homo sapiens)
# assay_summary: Peptide probe cleavage assay (internally quenched MCA/DNP probes) with MMP14
# Type: biochemical
# settings: 20 μM internally quenched peptide probe, 20 nM protease, 37° C.; — = below limit of quantification
No end group written: not given here.
Listing: Probe Cleavage (pM/s) MMP14 of selected substances

>  <substance>
CM PWGLRS: internally quenched MCA/DNP peptide probe of design SEQ ID NO: 698, CM PWGLRS (SEQ ID NO: 48) (also: MCA/DNP internal quench labels, places not given here)

>  <Probe Cleavage (pM/s) MMP14>
4380

$$$$
>  <substance>
CM AWGLSGRS: internally quenched MCA/DNP probe SEQ ID NO: 699 with one residue replaced by Ala, CM AWGLSGRS (SEQ ID NO: 686) (not fully specified (N-terminus, C-terminus); also: MCA/DNP internal quench labels, places not given here)

>  <Probe Cleavage (pM/s) MMP14>
224

$$$$
>  <substance>
CM PWGASGRS: internally quenched MCA/DNP probe SEQ ID NO: 699 with one residue replaced by Ala, CM PWGASGRS (SEQ ID NO: 689) (not fully specified (N-terminus, C-terminus); also: MCA/DNP internal quench labels, places not given here)

>  <Probe Cleavage (pM/s) MMP14>
29.7

$$$$
>  <substance>
CM RSPWGL: internally quenched MCA/DNP peptide probe of design SEQ ID NO: 698, CM RSPWGL (SEQ ID NO: 90) (also: MCA/DNP internal quench labels, places not given here)

>  <Probe Cleavage (pM/s) MMP14>
9580

$$$$
>  <substance>
CM LSGRSPAGL: internally quenched MCA/DNP probe of design SEQ ID NO: 703, X1 Arg, X2 Ala, CM LSGRSPAGL (SEQ ID NO: 694) (also: MCA/DNP internal quench labels, places not given here)

>  <Probe Cleavage (pM/s) MMP14>
190

$$$$

###

Listing: Probe Cleavage (pM/s) MMP9 of selected substances
# system: MMP9 (Homo sapiens)
# Sequence (P14780 94-707): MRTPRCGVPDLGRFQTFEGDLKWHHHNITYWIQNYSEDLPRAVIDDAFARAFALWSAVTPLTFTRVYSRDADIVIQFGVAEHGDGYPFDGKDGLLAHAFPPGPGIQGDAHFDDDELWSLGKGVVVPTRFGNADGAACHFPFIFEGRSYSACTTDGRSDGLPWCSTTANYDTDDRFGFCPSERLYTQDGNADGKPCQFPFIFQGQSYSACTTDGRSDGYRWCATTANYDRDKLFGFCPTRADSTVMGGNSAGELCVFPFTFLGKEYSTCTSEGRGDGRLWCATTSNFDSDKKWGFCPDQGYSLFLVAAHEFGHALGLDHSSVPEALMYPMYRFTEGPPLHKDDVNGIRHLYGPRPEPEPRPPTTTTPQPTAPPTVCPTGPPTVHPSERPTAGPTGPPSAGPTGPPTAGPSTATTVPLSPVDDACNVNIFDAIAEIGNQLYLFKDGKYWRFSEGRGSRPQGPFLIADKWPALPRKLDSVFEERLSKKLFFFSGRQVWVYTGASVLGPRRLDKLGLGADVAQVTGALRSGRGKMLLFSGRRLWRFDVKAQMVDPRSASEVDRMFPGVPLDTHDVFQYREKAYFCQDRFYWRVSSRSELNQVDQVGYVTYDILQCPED
# assay_summary: Peptide probe cleavage assay (internally quenched MCA/DNP probes) with MMP9
# Type: biochemical
# settings: 20 μM internally quenched peptide probe, 20 nM protease, 37° C.
Starred links: 1 amine or outer side, 2 acyl side, 3 side chain; linkers in the order of their positions; H or OH if unused. No end group written: not given here. *: point of attachment. K(DNP) = O=C([C@H](CCCCNc1ccc([N+](=O)[O-])cc1[N+](=O)[O-])N[*:1])[*:2]; Mca = COc1ccc2c(CC(=O)*)cc(=O)oc2c1

>  <substance>
CM PWGLRS: internally quenched MCA/DNP peptide probe of design SEQ ID NO: 698, CM PWGLRS (SEQ ID NO: 48) (also: MCA/DNP internal quench labels, places not given here)

>  <system>
MMP9 (Homo sapiens)

>  <Probe Cleavage (pM/s) MMP9>
3830

$$$$
>  <substance>
(MCA)-Gly-Ser-Trp-Gly-Leu-Ser-Gly-Arg-Ser-Gly-Lys (DNP)-D-Arg (Mca-GSWGLSGRSG-{K(DNP)-dR}; SMILES COc1ccc2c(CC(=O)NCC(=O)N[C@@H](CO)C(=O)N[C@@H](Cc3c[nH]c4ccccc34)C(=O)NCC(=O)N[C@@H](CC(C)C)C(=O)N[C@@H](CO)C(=O)NCC(=O)N[C@@H](CCCNC(=N)N)C(=O)N[C@@H](CO)C(=O)NCC(=O)N[C@@H](CCCCNc3ccc([N+](=O)[O-])cc3[N+](=O)[O-])C(=O)N[C@H](CCCNC(=N)N)C(=O)O)cc(=O)oc2c1) [CM WGLSGRS]

>  <system>
MMP9 (Homo sapiens)

>  <Probe Cleavage (pM/s) MMP9>
581

$$$$
>  <substance>
CM PWGASGRS: internally quenched MCA/DNP probe SEQ ID NO: 699 with one residue replaced by Ala, CM PWGASGRS (SEQ ID NO: 689) (not fully specified (N-terminus, C-terminus); also: MCA/DNP internal quench labels, places not given here)

>  <system>
MMP9 (Homo sapiens)

>  <Probe Cleavage (pM/s) MMP9>
456

$$$$
>  <substance>
CM RSPWGL: internally quenched MCA/DNP peptide probe of design SEQ ID NO: 698, CM RSPWGL (SEQ ID NO: 90) (also: MCA/DNP internal quench labels, places not given here)

>  <system>
MMP9 (Homo sapiens)

>  <Probe Cleavage (pM/s) MMP9>
25500

$$$$

Attribution: patent US12617856B2
